- system-under-test: Programmed cell death 1 ligand 1 (Homo sapiens) (UniProt Q9NZQ7)
- Sequence (Q9NZQ7 whole entry): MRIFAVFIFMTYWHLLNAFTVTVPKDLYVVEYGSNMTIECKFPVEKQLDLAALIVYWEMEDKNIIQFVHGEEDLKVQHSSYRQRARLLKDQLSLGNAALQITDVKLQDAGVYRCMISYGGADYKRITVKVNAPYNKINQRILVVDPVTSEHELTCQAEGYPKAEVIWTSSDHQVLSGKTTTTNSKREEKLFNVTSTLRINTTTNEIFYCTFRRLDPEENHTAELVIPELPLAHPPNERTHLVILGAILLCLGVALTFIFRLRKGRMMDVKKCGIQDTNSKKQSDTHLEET
- protocol-details: Induction of hydrophobic tag tethering degradation of PD-L1 in human NCI-H460 cells at 10 uM incubated for 24 hrs by Western blot analysis
- Assay type: cell-based
Active and inactive are the calls of the source. The calls are words filed in the database; no cut-off is given here.

{"molecule": "Cc1c(COc2ccc(CNCCOCCOCCOCCC(=O)NC(C3CCCCC3)C3CCCCC3)cn2)cccc1-c1ccccc1", "Activity": "inactive"}
{"molecule": "Cc1c(COc2ccc(CNCCOCCOCCOCCOCCC(=O)NC(c3ccccc3)c3ccc(C(F)(F)F)cc3)cn2)cccc1-c1ccccc1 (stereo not drawn)", "Activity": "inactive"}

====

- system-under-test: Programmed cell death 1 ligand 1 (Homo sapiens)
- protocol-details: Induction of hydrophobic tag tethering degradation of PD-L1 in human NCI-H460 cells at 10 uM incubated for 24 hrs by Western blot analysis
- Assay type: cell-based
Calls of active or inactive are those of the source. No cut-off for these calls is given here.
// allowed return values: YES for active, NO for inactive

Please review the following examples before continuing.
{"compound": "Cc1c(-c2ccccc2)cccc1-c1ccc(CNCCOCCOCCC(=O)NN2CCN(C(c3ccc(F)cc3)c3ccc(F)cc3)CC2)cn1", "label-value": "YES"}
{"compound": "Cc1c(COc2ccc(CNCCOCCOCCOCCOCCC(=O)NCCNC(=O)C(C)c3ccc(CC(C)C)cc3)cn2)cccc1-c1ccccc1 (configuration not stated)", "label-value": "NO"}
{"compound": "Cc1c(COc2ccc(CNCCOCCOCCC(=O)NC(c3ccccc3)c3ccccc3)cn2)cccc1-c1ccccc1", "label-value": "YES"}
{"compound": "Cc1c(COc2ccc(CNCCOCCOCCOCCOCCC(=O)NC(c3ccccc3)c3ccccc3)cn2)cccc1-c1ccccc1", "label-value": "YES"}

*Q* In this assay, the call recorded for Cc1c(-c2ccccc2)cccc1-c1ccc(CNCCOCCOCCOCCOCCC(=O)NC(c2ccccc2)c2ccccc2)cn1 was what?
*A* YES

*Q* In this assay, the call recorded for Cc1c(COc2ccc(CNCCOCCOCCOCCC(=O)NCCNC(=O)C(C)c3ccc(CC(C)C)cc3)cn2)cccc1-c1ccccc1 (configuration not stated) was what?
*A* NO

*Q* In this assay, the call recorded for Cc1c(COc2ccc(CNCCOCCOCCOCCC(=O)NN3CCN(C(c4ccc(F)cc4)c4ccc(F)cc4)CC3)cn2)cccc1-c1ccccc1 was what?
*A* NO

====

- system-under-test: Programmed cell death 1 ligand 1 (Homo sapiens)
- protocol-details: Induction of hydrophobic tag tethering degradation of PD-L1 in human NCI-H460 cells at 10 uM incubated for 24 hrs by Western blot analysis
- Type: cell-based
Active and inactive are the calls of the source. The calls are words filed in the database; no cut-off is given here.
measurement-type: Activity

{"compound": "Cc1c(COc2ccc(CNCCOCCOCCOCCOCCOCCC(=O)NC(c3ccccc3)c3ccccc3)cn2)cccc1-c1ccccc1", "Activity": "inactive"}
{"compound": "Cc1c(COc2ccc(CNCCOCCOCCOCCC(=O)NC34CC5CC(CC(C5)C3)C4)cn2)cccc1-c1ccccc1", "Activity": "inactive"}
{"compound": "Cc1c(-c2ccccc2)cccc1-c1ccc(CNCCOCCOCCC(=O)NC(c2ccccc2)c2ccccc2)cn1", "Activity": "inactive"}
{"compound": "Cc1c(-c2ccccc2)cccc1-c1ccc(CNCCOCCOCCOCCOCCC(=O)NC(c2ccccc2)c2ccc(C(F)(F)F)cc2)cn1 (stereo not given)", "Activity": "inactive"}
{"compound": "Cc1c(COc2ccc(CNCCOCCOCCOCCOCCC(=O)NN3CCN(C(c4ccc(F)cc4)c4ccc(F)cc4)CC3)cn2)cccc1-c1ccccc1", "Activity": "inactive"}
{"compound": "Cc1c(COc2ccc(CNCCOCCOCCC(=O)NC(C3CCCCC3)C3CCCCC3)cn2)cccc1-c1ccccc1", "Activity": "inactive"}
{"compound": "Cc1c(COc2ccc(CNCCOCCOCCC(=O)NCCNC(=O)C(C)c3ccc(CC(C)C)cc3)cn2)cccc1-c1ccccc1 (stereo not given)", "Activity": "inactive"}
{"compound": "Cc1c(-c2ccccc2)cccc1-c1ccc(CNCCOCCOCCOCCOCCC(=O)NN2CCN(C(c3ccc(F)cc3)c3ccc(F)cc3)CC2)cn1", "Activity": "inactive"}
{"compound": "Cc1c(COc2ccc(CNCCOCCOCCOCCC(=O)NC(c3ccccc3)c3ccccc3)cn2)cccc1-c1ccccc1", "Activity": "Active"}
{"compound": "Cc1c(-c2ccccc2)cccc1-c1ccc(CNCCOCCOCCOCCC(=O)NC(c2ccc(F)cc2)c2ccc(F)cc2)cn1", "Activity": "inactive"}

Summary for this compound, Cc1c(-c2ccccc2)cccc1-c1ccc(CNCCOCCOCCOCCC(=O)NC(c2ccccc2)c2ccc(C(F)(F)F)cc2)cn1 (stereo not given) : Activity is inactive

Summary for this compound, Cc1c(-c2ccccc2)cccc1-c1ccc(CNCCOCCOCCOCCC(=O)NC(c2ccccc2)c2ccccc2)cn1 : Activity is Active

Summary for this compound, Cc1c(COc2ccc(CNCCOCCOCCC(=O)NC(c3ccccc3)c3ccc(C(F)(F)F)cc3)cn2)cccc1-c1ccccc1 (stereo not given) : Activity is inactive

Summary for this compound, Cc1c(COc2ccc(CNCCOCCOCCOCCOCCOCCC(=O)NCCNC(=O)C(C)c3ccc(CC(C)C)cc3)cn2)cccc1-c1ccccc1 (stereo not given) : Activity is inactive

Summary for this compound, Cc1c(-c2ccccc2)cccc1-c1ccc(CNCCOCCOCCC(=O)NC(c2ccc(F)cc2)c2ccc(F)cc2)cn1 : Activity is inactive
